Assign selectivity ratio to each entry below.
test system: MRP1; assay: in vitro; settings: mouse, L929 cells (IC50) versus 2008/MRP1 cells (EC50)
Description: Selectivity index, ratio of IC50 for mouse L929 cells to EC50 for MRP1 in human 2008/MRP1 cells

Could you please provide reported selectivity ratio for `O=c1cc(-c2ccc(OCCOCCOCCn3cc(CCCOc4ccc(-c5cc(=O)c6ccc(F)cc6o5)cc4)nn3)cc2)oc2ccccc12` ? Thanks!
> 481

Could you please provide reported selectivity ratio for `O=c1cc(-c2ccc(OCCOCCn3cc(CCCOc4ccc5c(=O)cc(-c6ccccc6)oc5c4)nn3)cc2)oc2ccccc12` ? Thanks!
> 662

Could you please provide reported selectivity ratio for `O=c1cc(-c2ccc(OCCOCCn3cc(CCCCOc4ccc5c(=O)cc(-c6ccccc6)oc5c4)nn3)cc2)oc2ccccc12` ? Thanks!
> 1150

====

experiment: Cytotoxicity against human 2008/MRP1 cells assessed as cell survival at 2 uM after 5 days by MTS assay relative to control; type: cell-based; conditions: read-out: Survival
So basically: is viability at 120 h, 2 µM under 40%? Then Satisfied. Not under? Then Not satisfied.

# TODO verify viability at 120 h, 2 µM < 40% strictly for this compound: `O=c1cc(-c2ccccc2)oc2cc(OCCCc3cn(CCOCCOc4ccc5c(=O)cc(-c6ccccc6)oc5c4)nn3)ccc12`
Not satisfied

# TODO verify viability at 120 h, 2 µM < 40% strictly for this compound: `O=c1cc(-c2ccc(OCCCc3cn(CCOCCOCCOc4ccc(-c5cc(=O)c6cc(F)ccc6o5)cc4)nn3)cc2)oc2ccccc12`
Not satisfied

# TODO verify viability at 120 h, 2 µM < 40% strictly for this compound: `Cc1ccc2oc(-c3ccc(OCCCCc4cn(CCOCCOCCOc5ccc(-c6cc(=O)c7cc(C)ccc7o6)cc5)nn4)cc3)cc(=O)c2c1`
Not satisfied

# TODO verify viability at 120 h, 2 µM < 40% strictly for this compound: `O=c1cc(-c2ccc(OCCCc3cn(CCOCCOc4ccc(-c5cc(=O)c6cc(F)ccc6o5)cc4)nn3)cc2)oc2ccccc12`
Not satisfied

# TODO verify viability at 120 h, 2 µM < 40% strictly for this compound: `O=C1c2ccccc2C(=O)N1CCc1cn(CCOCCOCCOc2ccc(-c3cc(=O)c4cc(F)ccc4o3)cc2)nn1`
Satisfied

# TODO verify viability at 120 h, 2 µM < 40% strictly for this compound: `O=C1c2ccccc2C(=O)N1CCc1cn(CCOCCOc2ccc(-c3cc(=O)c4cc(F)ccc4o3)cc2)nn1`
Satisfied

# TODO verify viability at 120 h, 2 µM < 40% strictly for this compound: `O=c1cc(-c2ccc(OCCOCCn3cc(CCCOc4ccc5c(=O)cc(-c6ccccc6)oc5c4)nn3)cc2)oc2ccccc12`
Not satisfied

# TODO verify viability at 120 h, 2 µM < 40% strictly for this compound: `O=C1c2ccccc2C(=O)N1CCc1cn(CCOc2cccc3c(=O)cc(-c4ccccc4)oc23)nn1`
Satisfied

# TODO verify viability at 120 h, 2 µM < 40% strictly for this compound: `O=c1cc(-c2ccc(OCCOCCn3cc(CCCOc4ccc(-c5cc(=O)c6ccc(F)cc6o5)cc4)nn3)cc2)oc2ccccc12`
Not satisfied

# TODO verify viability at 120 h, 2 µM < 40% strictly for this compound: `O=c1cc(-c2ccccc2)oc2cc(OCCOCc3cn(CCOCCOc4ccc(-c5oc6ccccc6c(=O)c5OCc5ccccc5)cc4)nn3)ccc12`
Not satisfied

# TODO verify viability at 120 h, 2 µM < 40% strictly for this compound: `O=c1cc(-c2ccccc2)oc2cc(OCCN(Cc3ccccc3)Cc3cn(CCOCCOc4ccc(-c5cc(=O)c6cc(F)ccc6o5)cc4)nn3)ccc12`
Not satisfied
